Listed here: items and their measured IC50.
Assay System: γ-secretase (Homo sapiens)
Protocol Description: cell-free γ-secretase assay using detergent-solubilized membranes from HeLa cells and a recombinant APP-based substrate
Format: biochemical
Design: detergent-solubilized membranes from HeLa cells; endogenous in cells; host or cells: HeLa cells (detergent-solubilized membranes)
Applied Conditions: 50% inhibition of Aβ40 production; at least three independent experiments; read-out: Cell-free Assay IC50
Non-standard residues stand in square brackets, D forms with d. Residues, ends and D or L forms follow the SMILES beside them. *: point of attachment. Boc = CC(C)(C)OC(=O)*; Aib = CC(C)(N)C(=O)O; Bn = c1ccc(C*)cc1
Reply numerically in nM, unit not repeated.

Compound	Assay System	Unit Abbrev	IC50
CC[C@@H](C)[C@@H](NC(=O)[C@H](NC(=O)[C@H](NC(=O)OC(C)(C)C)C(C)C)C(C)C)C(=O)NC(C)(C)C(=O)N[C@@H](C(=O)N[C@@H](C(=O)NC(C)(C)C(=O)N[C@@H](C(=O)N[C@@H](C(=O)NC(C)(C)C(=O)OC)[C@H](C)CC)C(C)C)C(C)C)[C@H](C)OCc1ccccc1 [SEQ ID NO:15 D-peptide] (Boc-[dV][dV][dI][Aib][dT](Bn)[dV][Aib][dV][dI][Aib]-OMe)	γ-secretase (Homo sapiens)	nM	25
CC[C@@H](C)[C@@H](NC(=O)[C@H](NC(=O)[C@H](NC(=O)C(C)(C)NC(=O)CNC(=O)[C@H](NC(=O)C(C)(C)NC(=O)OC(C)(C)C)C(C)C)C(C)C)C(C)C)C(=O)NC(C)(C)C(=O)N[C@@H](C(=O)N[C@@H](C(=O)NC(C)(C)C(=O)N[C@@H](C(=O)N[C@@H](C(=O)NC(C)(C)C(=O)OC)[C@H](C)CC)C(C)C)C(C)C)[C@H](C)OCc1ccccc1 [SEQ ID NO:19 D-peptide] (Boc-[Aib][dV]G[Aib][dV][dV][dI][Aib][dT](Bn)[dV][Aib][dV][dI][Aib]-OMe)	γ-secretase (Homo sapiens)	nM	14

Asked: Entry CC[C@H](C)[C@H](NC(=O)[C@@H](NC(=O)[C@@H](NC(=O)OC(C)(C)C)C(C)C)C(C)C)C(=O)NC(C)(C)C(=O)N[C@H](C(=O)N[C@H](C(=O)NC(C)(C)C(=O)N[C@H](C(=O)N[C@H](C(=O)NC(C)(C)C(=O)OC)[C@@H](C)CC)C(C)C)C(C)C)[C@@H](C)OCc1ccccc1 [SEQ ID NO:15 L-peptide] (Boc-VVI[Aib]T(Bn)V[Aib]VI[Aib]-OMe) : reported IC50 = ?
Given back: 10000

Asked: Entry CC[C@H](C)[C@H](NC(=O)[C@@H](NC(=O)[C@@H](NC(=O)C(C)(C)NC(=O)CNC(=O)[C@@H](NC(=O)C(C)(C)NC(=O)OC(C)(C)C)C(C)C)C(C)C)C(C)C)C(=O)NC(C)(C)C(=O)N[C@H](C(=O)N[C@H](C(=O)NC(C)(C)C(=O)N[C@H](C(=O)N[C@H](C(=O)NC(C)(C)C(=O)OC)[C@@H](C)CC)C(C)C)C(C)C)[C@@H](C)OCc1ccccc1 [SEQ ID NO:19 L-peptide] (Boc-[Aib]VG[Aib]VVI[Aib]T(Bn)V[Aib]VI[Aib]-OMe) : reported IC50 = ?
Given back: 910

Asked: Entry CC[C@H](C)[C@H](NC(=O)[C@@H](NC(=O)[C@@H](NC(=O)C(C)(C)NC(=O)OC(C)(C)C)C(C)C)C(C)C)C(=O)NC(C)(C)C(=O)N[C@H](C(=O)N[C@H](C(=O)NC(C)(C)C(=O)N[C@H](C(=O)N[C@H](C(=O)NC(C)(C)C(=O)OC)[C@@H](C)CC)C(C)C)C(C)C)[C@@H](C)OCc1ccccc1 [SEQ ID NO:16 L-peptide] (Boc-[Aib]VVI[Aib]T(Bn)V[Aib]VI[Aib]-OMe) : reported IC50 = ?
Given back: 3100
